meta.source: patent US5741781A

Target Under Test: peptidyldipeptidase A (ACE) (Homo sapiens, UniProt P12821)
Sequence (P12821 30-1306, species assumed): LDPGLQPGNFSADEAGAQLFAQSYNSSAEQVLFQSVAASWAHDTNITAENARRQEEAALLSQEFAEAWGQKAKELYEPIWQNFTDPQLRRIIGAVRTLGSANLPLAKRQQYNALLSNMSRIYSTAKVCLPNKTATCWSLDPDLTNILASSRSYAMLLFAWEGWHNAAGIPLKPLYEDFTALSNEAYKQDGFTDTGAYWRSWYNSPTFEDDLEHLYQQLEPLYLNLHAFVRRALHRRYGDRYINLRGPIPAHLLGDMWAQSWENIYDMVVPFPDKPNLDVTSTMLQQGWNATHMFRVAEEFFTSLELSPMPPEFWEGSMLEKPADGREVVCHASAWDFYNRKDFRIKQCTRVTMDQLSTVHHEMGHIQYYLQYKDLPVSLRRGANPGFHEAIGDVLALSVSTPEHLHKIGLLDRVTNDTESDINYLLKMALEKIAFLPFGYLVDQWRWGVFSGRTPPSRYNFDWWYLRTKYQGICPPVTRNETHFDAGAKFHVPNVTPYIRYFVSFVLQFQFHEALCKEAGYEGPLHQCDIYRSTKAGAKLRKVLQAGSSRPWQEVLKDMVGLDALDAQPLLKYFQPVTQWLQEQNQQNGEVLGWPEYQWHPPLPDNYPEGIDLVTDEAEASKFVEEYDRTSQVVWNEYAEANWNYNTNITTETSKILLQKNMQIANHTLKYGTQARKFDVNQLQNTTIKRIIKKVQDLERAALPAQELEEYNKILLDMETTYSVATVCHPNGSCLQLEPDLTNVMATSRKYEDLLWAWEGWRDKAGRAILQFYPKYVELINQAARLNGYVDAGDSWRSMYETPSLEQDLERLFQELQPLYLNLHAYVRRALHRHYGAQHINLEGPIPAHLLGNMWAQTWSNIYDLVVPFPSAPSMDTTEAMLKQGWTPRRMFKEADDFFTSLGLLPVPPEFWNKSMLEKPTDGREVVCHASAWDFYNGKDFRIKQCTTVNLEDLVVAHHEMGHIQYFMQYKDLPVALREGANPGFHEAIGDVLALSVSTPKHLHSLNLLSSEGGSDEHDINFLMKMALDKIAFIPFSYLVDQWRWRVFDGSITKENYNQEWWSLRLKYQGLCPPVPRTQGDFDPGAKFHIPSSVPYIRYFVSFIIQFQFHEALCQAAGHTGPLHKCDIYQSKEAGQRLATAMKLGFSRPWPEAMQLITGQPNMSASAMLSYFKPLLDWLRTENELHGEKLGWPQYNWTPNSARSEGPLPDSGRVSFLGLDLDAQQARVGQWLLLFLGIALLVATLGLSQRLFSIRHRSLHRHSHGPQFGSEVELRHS
Run Description: Inhibitory effect in vitro on peptidyldipeptidase A, Z-Phe-His-Leu as substrate
Assay type: biochemical
Exercise: state measured IC50 for each of the compounds provided.
Number in nM, nothing else.

Input line: Look up IC50 of Cc1ccc(C2CC[C@@H](C(=O)O)N2C(=O)CNC(=O)C(S)Cc2ccc(O)cc2)cc1 (some centres unmarked) [Example 32] and report it.
Output line: 3.2

Input line: Look up IC50 of O=C(NCC(=O)N1C(c2ccccc2O)CC[C@H]1C(=O)O)C(S)Cc1ccc(O)cc1 (some centres unmarked) [Example 7] and report it.
Output line: 0.35

Input line: Look up IC50 of O=C(NCC(=O)N1C(c2cccc(O)c2)CC[C@H]1C(=O)O)C(S)Cc1ccc(O)cc1 (some centres unmarked) [Example 18] and report it.
Output line: 0.7

Input line: Look up IC50 of Nc1ccc(CC(S)C(=O)NCC(=O)N2C(c3ccccc3)CC[C@H]2C(=O)O)cc1 (some centres unmarked) [Example 14] and report it.
Output line: 3.5

Input line: Look up IC50 of Nc1ccc(C2CC[C@@H](C(=O)O)N2C(=O)CNC(=O)C(S)Cc2ccc(O)cc2)cc1 (some centres unmarked) [Example 16] and report it.
Output line: 23

Input line: Look up IC50 of Cc1ccc(C2CC[C@@H](C(=O)O)N2C(=O)CNC(=O)C(S)Cc2ccccc2)cc1 (some centres unmarked) [Example 30] and report it.
Output line: 8.2

Input line: Look up IC50 of O=C(NCC(=O)N1C(c2ccccc2)CC[C@H]1C(=O)O)C(S)Cc1ccccc1 (some centres unmarked) [Example 3] and report it.
Output line: 0.55

Input line: Look up IC50 of Cc1ccccc1C1CC[C@@H](C(=O)O)N1C(=O)CNC(=O)C(S)Cc1ccccc1 (some centres unmarked) [Example 36] and report it.
Output line: 3.5

* * *

Target Under Test: neutral endopeptidase (NEP) (Homo sapiens, UniProt P08473)
Sequence (P08473 whole entry, species assumed): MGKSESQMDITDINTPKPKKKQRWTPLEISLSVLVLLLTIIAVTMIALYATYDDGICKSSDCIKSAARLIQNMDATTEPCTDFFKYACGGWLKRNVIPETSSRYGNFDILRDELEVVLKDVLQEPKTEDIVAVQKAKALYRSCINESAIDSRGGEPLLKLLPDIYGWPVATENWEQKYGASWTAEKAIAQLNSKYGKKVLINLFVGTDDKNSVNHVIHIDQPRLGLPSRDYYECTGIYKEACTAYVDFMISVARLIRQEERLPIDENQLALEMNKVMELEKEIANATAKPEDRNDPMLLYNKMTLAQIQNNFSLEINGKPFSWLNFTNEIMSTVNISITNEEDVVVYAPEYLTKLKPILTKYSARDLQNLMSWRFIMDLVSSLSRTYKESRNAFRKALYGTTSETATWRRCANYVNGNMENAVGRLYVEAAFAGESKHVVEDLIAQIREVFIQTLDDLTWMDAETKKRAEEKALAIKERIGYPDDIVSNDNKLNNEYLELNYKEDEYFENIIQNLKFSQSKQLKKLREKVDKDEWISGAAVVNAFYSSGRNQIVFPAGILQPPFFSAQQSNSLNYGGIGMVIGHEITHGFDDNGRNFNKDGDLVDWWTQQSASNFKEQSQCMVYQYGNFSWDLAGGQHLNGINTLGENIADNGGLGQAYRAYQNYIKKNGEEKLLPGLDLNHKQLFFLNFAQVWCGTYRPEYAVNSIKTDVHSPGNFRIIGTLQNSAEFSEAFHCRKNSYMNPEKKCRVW
Run Description: Inhibitory effect in vitro on neutral endopeptidase, [3H]-D-Ala2-Leu-encephalin as substrate
Type: biochemical
Particulars: in vitro
Measured Parameter: IC50 (nM)
Number in nM, nothing else.

Input line: Look up IC50 of O=C(NCC(=O)N1C(c2cccc(O)c2)CC[C@H]1C(=O)O)C(S)Cc1ccc(O)cc1 (some centres unmarked) and report it.
Output line: 1.6

Input line: Look up IC50 of O=C(NCC(=O)N1C(c2ccc(O)cc2)CC[C@H]1C(=O)O)C(S)Cc1ccc(O)cc1 (some centres unmarked) and report it.
Output line: 6

Input line: Look up IC50 of O=C(NCC(=O)N1C(c2cccc(O)c2)CC[C@H]1C(=O)O)C(S)Cc1ccccc1 (some centres unmarked) and report it.
Output line: 2.4

Input line: Look up IC50 of COc1ccc(CC(S)C(=O)NCC(=O)N2C(c3ccccc3OC)CC[C@H]2C(=O)O)cc1 (some centres unmarked) and report it.
Output line: 2.5

Input line: Look up IC50 of O=C(NCC(=O)N1C(c2ccccc2O)CC[C@H]1C(=O)O)C(S)Cc1ccc(Cl)cc1 (some centres unmarked) and report it.
Output line: 1.2

Input line: Look up IC50 of Nc1ccc(C2CC[C@@H](C(=O)O)N2C(=O)CNC(=O)C(S)Cc2ccc(O)cc2)cc1 (some centres unmarked) and report it.
Output line: 26

Input line: Look up IC50 of Cc1ccc(C2CC[C@@H](C(=O)O)N2C(=O)CNC(=O)C(S)Cc2ccc(O)cc2)cc1 (some centres unmarked) and report it.
Output line: 5

Input line: Look up IC50 of Cc1ccccc1C1CC[C@@H](C(=O)O)N1C(=O)CNC(=O)C(S)Cc1ccccc1 (some centres unmarked) and report it.
Output line: 4
